// reported aptazyme ON/OFF ratio for each item listed
B1: Pistol ribozyme (parent)
chain: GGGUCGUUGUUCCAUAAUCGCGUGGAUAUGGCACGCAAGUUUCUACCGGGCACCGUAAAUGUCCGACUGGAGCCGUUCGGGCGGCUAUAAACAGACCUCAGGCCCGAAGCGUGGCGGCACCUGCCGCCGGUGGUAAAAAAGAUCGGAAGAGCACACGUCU

Variants of: B1
Assay: aptazyme ON/OFF ratio, guanine; higher = stronger switching; co-transcriptional cleavage with and without guanine
Give a plain numeric answer without units written out.

Check out these entries, answers already filled in.
1) U8C G9A U10C U11G C12A : 1.25
2) U7C U8A G9U U10C U11G C12A : 1.07

Q: Recorded aptazyme ON/OFF ratio for U7C G9A U10A U11A C12U C13A , please?
Result: 1.18

Q: // returns reported aptazyme ON/OFF ratio for input U7G U8A G9U U10G C12A C13G
Result: 1.03

Q: Returns the measured aptazyme ON/OFF ratio for the input variant. Input: U7A U8G G9C U10G U11C C12G C13G
Result: 1.3
